- test_target: ETS1 (UniProt P14921)
- Sequence: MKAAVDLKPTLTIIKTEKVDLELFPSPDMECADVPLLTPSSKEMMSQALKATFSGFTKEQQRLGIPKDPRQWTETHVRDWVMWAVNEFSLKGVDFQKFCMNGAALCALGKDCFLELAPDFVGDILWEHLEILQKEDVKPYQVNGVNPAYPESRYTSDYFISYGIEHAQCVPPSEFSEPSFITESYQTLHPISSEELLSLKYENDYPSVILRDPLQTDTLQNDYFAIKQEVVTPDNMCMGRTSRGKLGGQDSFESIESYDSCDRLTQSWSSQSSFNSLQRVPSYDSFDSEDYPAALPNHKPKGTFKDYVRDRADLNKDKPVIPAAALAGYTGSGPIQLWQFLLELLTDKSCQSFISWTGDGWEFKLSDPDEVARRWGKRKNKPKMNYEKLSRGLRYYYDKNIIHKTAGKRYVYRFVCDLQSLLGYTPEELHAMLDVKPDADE
- method_summary: ETS1 binding intensity (PBM fluorescence), ETS1 alone (arbitrary fluorescence units); higher = stronger binding
- settings: ETS1 concentration 1 nM; RUNX1 concentration 0 nM
Over roughly 4,100 sequences, “arbitrary fluorescence units” has its median near 780; the highest 2% begin near 22,000. The entries come from a sample that favours the highest values as a whole.
endpoint_name: ETS1 binding intensity

sequence_chain	reading
CTAAAGGCAGGGACTACAAACACTTCCTGTTTGTGT	7710
TAAAATTTCGGGAGGGGACTTGGTCCTTCCTGTTGC	735
CTTATCAACTACCAAGAGACATTTCCCCTTTGTACT	558
GACGGCCGCTTTTGGCGCGGGACTTCCTGCCTGGCC	3070
CTGCTTGAGGGTGGAGGGGAGCTTCCGAAGGAGGCC	536
TGCCGCCTGCAGCACCCTCCCCATTTCCTGGCTGTA	1190
TGGAGCTGTTACGGGGTCCGCGGGGAAGTCTTGGCA	364
CAGGGATTCCGGCTGAGTGCGGCCCCCTCAGCCTCC	606
CCGAGCGCACCAGCTCCCGCGCGTGGTTCCGCCGCT	324
CGTTTCCTGTGGCTGCAGCTCTCCCCACGCACACAC	23800
GCACGTGTTTCCTGGGGCTGCACCCCAGCACCACAC	2380
CACTTCCTCCTCGGGGGCCTCAGAAAATCACAGGGC	13200
CTTAGCGGAAGAGGCGTGACCCAGGCGTACCCCAGG	1380
TAGGTTTGGGGTAGAAGCTGCAGGAACTTCCTGTCC	1710
TTGCGCCGGACGCCACTTTCGGTCCCCGTGGACACG	602
GGACGCTTCCGGTGGAAGGGAGCTGTTACGGGGCTT	32900
TTTAAGGTTCATGCTGTACTCAGAACATCCTGTTCT	1150
AATGAGCCCCAGAACCCTTTTCCTTCCGGCCTGTGC	1520
CACCCAAGGATATGCTTTTTTTTGGCAAGTCACATC	604
CCAACGAGCACTTCCGCTTCCCGAAGCTCCAGCGGC	27700
CCTTTGGGGTAGCAGTGGCCCCGCGCGGAGGAAGTT	303
TCTAAATCACTTCCTGTTACAGAAACTACAGGCCTG	26900
CTCTTGGCGGACGTTCCACATTGCCACTGACTTTGT	616
GGTCACGTGTCCACGGGGACCGGAAGTGGCGCCCGG	14400
TCCAGCGCCGCTGGGCCAACGAGAGCGCTTCCGGCC	1740

Values were extracted from the supplement of paper PMC10681739.
